Kindly state IC50 for each of the entries shown.
Assay: Antiproliferative activity against human […] cells after 3 days by SRB assay
Format: functional, cell-based
Settings: 72 h
Returns: string containing the number followed by the unit.

Entry `Cc1ccc2c(c1)C(=N/O)/C(=C1/C(=O)Nc3ccc(Cl)cc31)N2` has what IC50? 18.8 µM

Entry `O=C1Nc2ccc(Cl)cc2/C1=C1/Nc2ccc(Cl)cc2/C1=N/O` has what IC50? 1.86 µM

Entry `O=C1Nc2ccc([N+](=O)[O-])cc2/C1=C1/Nc2ccc(F)cc2/C1=N/O` has what IC50? 0.28 µM

Entry `Cc1ccc2c(c1)C(=N/O)/C(=C1/C(=O)Nc3ccc([N+](=O)[O-])cc31)N2` has what IC50? 1.41 µM

Entry `O=C1Nc2ccc(OC(F)(F)F)cc2/C1=C1/Nc2ccc(O)cc2/C1=N/O` has what IC50? 2.25 µM

Entry `O=C1Nc2ccc(OC(F)(F)F)cc2/C1=C1/Nc2ccc(F)cc2/C1=N/O` has what IC50? 1.51 µM

Entry `COc1ccc2c(c1)C(=N/O)/C(=C1/C(=O)Nc3ccc(F)cc31)N2` has what IC50? 3.59 µM

Entry `O=C1Nc2ccc(F)cc2/C1=C1/Nc2ccc(O)cc2/C1=N/O` has what IC50? 1.66 µM

Entry `O=C1Nc2ccc(Cl)cc2/C1=C1/Nc2ccc(F)cc2/C1=N/O` has what IC50? 3.31 µM

Entry `O=C1Nc2ccc(F)cc2/C1=C1/Nc2ccc(F)cc2/C1=N/O` has what IC50? 13.5 µM

----------
Experiment: Solubility of compound in 2 equimolar NaOH and distilled water
Type: physicochemical
Settings: buffer
MEASURED_ENDPOINT: solubility

Entry `O=Nc1c(-c2c(O)[nH]c3ccc([N+](=O)[O-])cc23)[nH]c2ccccc12` has what solubility? < 100 µg/mL

Entry `O=C1Nc2ccc([N+](=O)[O-])cc2/C1=C1/Nc2ccc(Br)cc2/C1=N/O` has what solubility? < 100 µg/mL

Entry `O=C1Nc2ccc([N+](=O)[O-])cc2/C1=C1/Nc2ccc(O)cc2/C1=N/O` has what solubility? 2700 µg/mL

----------
Test system: A549
Test: Antiproliferative activity against human A549 cells after 3 days by SRB assay
Assay type: functional, cell-based
Settings: A549, 72 h
# Criterion met = IC50 below 10 µM (exclusive); Criterion not met = IC50 at/above 10 µM

Threshold test, IC50 < 10 µM: `O=C1Nc2ccc([N+](=O)[O-])cc2/C1=C1/Nc2ccc(Cl)cc2/C1=N/O` Criterion not met

Threshold test, IC50 < 10 µM: `O=C1Nc2ccc(OC(F)(F)F)cc2/C1=C1/Nc2ccc(Cl)cc2/C1=N/O` Criterion not met

Threshold test, IC50 < 10 µM: `Cc1ccc2c(c1)C(=N/O)/C(=C1/C(=O)Nc3ccc(OC(F)(F)F)cc31)N2` Criterion not met

Threshold test, IC50 < 10 µM: `O=C1Nc2ccc(F)cc2/C1=C1/Nc2ccc(Cl)cc2/C1=N/O` Criterion not met

Threshold test, IC50 < 10 µM: `O=C1Nc2ccc(Cl)cc2/C1=C1/Nc2ccc(O)cc2/C1=N/O` Criterion not met

Threshold test, IC50 < 10 µM: `O=C1Nc2ccc(F)cc2/C1=C1/Nc2ccc(F)cc2/C1=N/O` Criterion not met

Threshold test, IC50 < 10 µM: `COc1ccc2c(c1)C(=N/O)/C(=C1/C(=O)Nc3ccc(OC(F)(F)F)cc31)N2` Criterion not met

Threshold test, IC50 < 10 µM: `COc1ccc2c(c1)C(=N/O)/C(=C1/C(=O)Nc3ccc(F)cc31)N2` Criterion met

Threshold test, IC50 < 10 µM: `Cc1ccc2c(c1)C(=N/O)/C(=C1/C(=O)Nc3ccc(F)cc31)N2` Criterion not met

Threshold test, IC50 < 10 µM: `O=C1Nc2ccc(OC(F)(F)F)cc2/C1=C1/Nc2ccc(F)cc2/C1=N/O` Criterion not met

Threshold test, IC50 < 10 µM: `O=C1Nc2ccc([N+](=O)[O-])cc2/C1=C1/Nc2ccc(Br)cc2/C1=N/O` Criterion not met

Threshold test, IC50 < 10 µM: `COc1ccc2c(c1)C(=N/O)/C(=C1/C(=O)Nc3ccc([N+](=O)[O-])cc31)N2` Criterion not met

Threshold test, IC50 < 10 µM: `O=C1Nc2ccc(OC(F)(F)F)cc2/C1=C1/Nc2ccc(O)cc2/C1=N/O` Criterion not met

Threshold test, IC50 < 10 µM: `O=C1Nc2ccc(Cl)cc2/C1=C1/Nc2ccc(Cl)cc2/C1=N/O` Criterion not met

Threshold test, IC50 < 10 µM: `Cc1ccc2c(c1)C(=N/O)/C(=C1/C(=O)Nc3ccc(Cl)cc31)N2` Criterion not met

Threshold test, IC50 < 10 µM: `Cc1ccc2c(c1)C(=N/O)/C(=C1/C(=O)Nc3ccc([N+](=O)[O-])cc31)N2` Criterion not met

Threshold test, IC50 < 10 µM: `O=C1Nc2ccc(Cl)cc2/C1=C1/Nc2ccc(F)cc2/C1=N/O` Criterion not met

Threshold test, IC50 < 10 µM: `O=C1Nc2ccc(F)cc2/C1=C1/Nc2ccc(O)cc2/C1=N/O` Criterion met

Threshold test, IC50 < 10 µM: `O=C1Nc2ccc([N+](=O)[O-])cc2/C1=C1/Nc2ccc(F)cc2/C1=N/O` Criterion met

----------
Experiment: Antiproliferative activity against human […] cells after 3 days by SRB assay
Assay type: functional, cell-based
Details: 72 h
MEASURED_ENDPOINT: pIC50
pIC50 is a log-scale quantity: -log10 of the concentration expressed in molar.

Entry `O=C1Nc2ccc([N+](=O)[O-])cc2/C1=C1/Nc2ccc(Br)cc2/C1=N/O` has what pIC50? 6.35

Entry `O=C1Nc2ccc(F)cc2/C1=C1/Nc2ccc(Cl)cc2/C1=N/O` has what pIC50? 5.76

Entry `O=C1Nc2ccc([N+](=O)[O-])cc2/C1=C1/Nc2ccc(Cl)cc2/C1=N/O` has what pIC50? 6.48

----------
Molecular target: Cyclin-dependent kinase 2/cyclin E1 (Homo sapiens, UniProt P24941)
Assay: Inhibition of CDK2/cyclin E
MEASURED_ENDPOINT: IC50 (nM)
Give the value in nM but do not write nM after it.

Entry `O=C1Nc2ccc(F)cc2/C1=C1/Nc2ccc(F)cc2/C1=N/O` has what IC50? 1.83

Entry `COc1ccc2c(c1)C(=N/O)/C(=C1/C(=O)Nc3ccc(F)cc31)N2` has what IC50? 4120

Entry `O=C1Nc2ccc(Cl)cc2/C1=C1/Nc2ccc(F)cc2/C1=N/O` has what IC50? 8.01

Entry `O=C1Nc2ccc(OC(F)(F)F)cc2/C1=C1/Nc2ccc(F)cc2/C1=N/O` has what IC50? 60.3

Entry `O=C1Nc2ccc([N+](=O)[O-])cc2/C1=C1/Nc2ccc(O)cc2/C1=N/O` has what IC50? 1.91

Entry `O=C1Nc2ccc([N+](=O)[O-])cc2/C1=C1/Nc2ccc(F)cc2/C1=N/O` has what IC50? 1.71

Entry `O=C1Nc2ccc(Cl)cc2/C1=C1/Nc2ccc(Cl)cc2/C1=N/O` has what IC50? 11.1

Entry `COc1ccc2c(c1)C(=N/O)/C(=C1/C(=O)Nc3ccc(OC(F)(F)F)cc31)N2` has what IC50? 8620

Entry `O=C1Nc2ccc(OC(F)(F)F)cc2/C1=C1/Nc2ccc(O)cc2/C1=N/O` has what IC50? 8.32

Entry `O=C1Nc2ccc(OC(F)(F)F)cc2/C1=C1/Nc2ccc(Cl)cc2/C1=N/O` has what IC50? 76.2

----------
Test system: K562
Assay: Antiproliferative activity against human K562 cells after 3 days by SRB assay
Assay type: functional, cell-based
Settings: K562, 72 h
Kindly state IC50 for each of the entries shown.
Give the value in µM but do not write µM after it.

Entry `O=C1Nc2ccc(Cl)cc2/C1=C1/Nc2ccc(O)cc2/C1=N/O` has what IC50? 12.2

Entry `COc1ccc2c(c1)C(=N/O)/C(=C1/C(=O)Nc3ccc(F)cc31)N2` has what IC50? 5.29

Entry `O=C1Nc2ccc([N+](=O)[O-])cc2/C1=C1/Nc2ccc(F)cc2/C1=N/O` has what IC50? 0.46

Entry `O=C1Nc2ccc(F)cc2/C1=C1/Nc2ccc(Cl)cc2/C1=N/O` has what IC50? 14.7

Entry `Cc1ccc2c(c1)C(=N/O)/C(=C1/C(=O)Nc3ccc([N+](=O)[O-])cc31)N2` has what IC50? 0.81

Entry `O=C1Nc2ccc(Cl)cc2/C1=C1/Nc2ccc(F)cc2/C1=N/O` has what IC50? 7.14

Entry `O=C1Nc2ccc([N+](=O)[O-])cc2/C1=C1/Nc2ccc(Br)cc2/C1=N/O` has what IC50? 0.77

Entry `O=C1Nc2ccc(OC(F)(F)F)cc2/C1=C1/Nc2ccc(O)cc2/C1=N/O` has what IC50? 5.91

Entry `O=C1Nc2ccc(Cl)cc2/C1=C1/Nc2ccc(Cl)cc2/C1=N/O` has what IC50? 17.2

Entry `O=C1Nc2ccc(F)cc2/C1=C1/Nc2ccc(O)cc2/C1=N/O` has what IC50? 1.42

Entry `O=C1Nc2ccc(F)cc2/C1=C1/Nc2ccc(F)cc2/C1=N/O` has what IC50? 15.9

Entry `O=C1Nc2ccc(OC(F)(F)F)cc2/C1=C1/Nc2ccc(F)cc2/C1=N/O` has what IC50? 1.53

Entry `O=C1Nc2ccc([N+](=O)[O-])cc2/C1=C1/Nc2ccc(Cl)cc2/C1=N/O` has what IC50? 0.56
